The measurements presented in this section are drawn from ChEMBL document CHEMBL1201862.

# System: SF-295
# Procedure Details: NCI tumour cell line growth inhibition, 48 h
Active and inactive are the calls of the source. No stated cut-off is given here; in the data, active = GI50 up to about 1.1 µM and inactive = higher.
Returns: one label drawn from active, inactive

Example cases with answers are listed next.
Compound: CCCCC(=O)OC[n+]1ccc2c(C)c3[nH]c4ccccc4c3c(C)c2c1
Assigned Class: active
//
Compound: Cc1ccc(-c2cc(-c3ccco3)nc(N)n2)o1
Assigned Class: inactive
//
Compound: COc1ccc(/C(Cl)=C(\C=O)c2ccc([N+](=O)[O-])cc2)cc1
Assigned Class: inactive
//
Compound: CC(=O)Nc1ccc2cc(C)c(O)nc2n1
Assigned Class: inactive
//
Compound: C/C=C1/CCC2c3[nH]c4ccccc4c3CCN2C1 (stereo unspecified)
Assigned Class: inactive
//
Compound: O=S(=O)(O)c1cc(/N=N/c2c(O)ccc3ccccc23)ccc1/C=C/c1ccc(/N=N/c2c(O)ccc3ccccc23)cc1S(=O)(=O)O
Assigned Class: inactive
//
Compound: CCCCC1(NN=C2CCCCC2)C(=O)N(c2ccccc2)N(c2ccccc2)C1=O
Assigned Class: inactive
//
Compound: Cc1cc(C)c(C(=O)OC(c2ccccc2)C(c2ccccc2)N2CCOCC2)c(C)c1 (stereo unspecified)
Assigned Class: inactive
//
Compound: C=CC(Cl)(CBr)CCC(Br)=C(C)C (stereo unspecified)
Assigned Class: inactive
//
Compound: Nc1nc(Br)nc2ncn(C3CC(O)C(CO)O3)c12 (stereo unspecified)
Assigned Class: inactive

Query: I would be grateful if you could indicate the recorded call for Cc1c(C(=O)/C=C/C=C/c2ccccc2)[n+]([O-])c2ccccc2[n+]1[O-] .
Response: inactive

----------
# Tested on: LOX IMVI
# Procedure Details: NCI tumour cell line growth inhibition, 48 h
Calls of active or inactive are those of the source. Cut-off read from the data, not from the text of the source: active = GI50 up to about 1.1 µM and inactive = higher. Positions of bridges follow the written chain, without caps; N, C: chain ends. Non-standard residues stand in square brackets, D forms with d. Residues, ends and D or L forms follow the SMILES beside them. *: point of attachment. PhAc = O=C(Cc1ccccc1)*
Listing of recorded GI50 by entry.

Take a look at these entries with their results.
Compound: O=C1CCC2(c3ccc(F)cc3)Nc3ncccc3N12 (stereo unspecified)
Result: > 100 µM (inactive)
//
Compound: O=C(CC1(O)C(=O)Nc2ccccc21)c1ccc(O)cc1 (stereo unspecified)
Result: > 100 µM (inactive)

Query: Sample Cc1cc(=O)n(-c2cc3cccccc-3n2)[nH]1 — what was its GI50?
Response: 9.64 µM (inactive)

Query: GI50 for CC1COC(c2cn[nH]c2C(N)=O)C1O (stereo unspecified) ?
Response: > 100 µM (inactive)

Query: Which GI50 is listed for COC1CCC(=C2C(=O)OC(C)(C)OC2=O)N1 (stereo unspecified) ?
Response: > 100 µM (inactive)

Query: Consider the compound shown here: C/C=C1\Oc2ccc(OC)cc2S1(=O)=O What is its recorded GI50?
Response: > 100 µM (inactive)

Query: Using the record for O=C(Cc1ccccc1)N[C@@H]1COC(=O)[C@@H]2CCCN2C(=O)[C@@H]2CCCN2C1=O (PhAc-[dS]-Pro-Pro; ester 1-C) , report its GI50.
Response: > 100 µM (inactive)

Query: // returns reported GI50 for input Cc1cc(Oc2cnc(=O)[nH]c2)cs1
Response: > 100 µM (inactive)

Query: Can you look up the measured GI50 of CC(C)CC(NC=O)C(=O)NC(Cc1ccccc1)NC(=O)CNC(=O)C(C)NC(=O)OC(C)(C)C (stereo unspecified) for me?
Response: > 100 µM (inactive)

Query: Item C=C1c2c(n(S(=O)(=O)c3ccccc3)c3ccccc23)[C@@]2(C(=O)OC)CC3C=CC2N1C3 has what recorded GI50?
Response: > 100 µM (inactive)

Query: For the compound CCCC/C=C1\CCC(CN2CCCCC2)C1=O (stereo unspecified) , what GI50 is on record?
Response: > 28.9 µM (inactive)

----------
# System: IGROV-1
# Procedure Details: NCI tumour cell line growth inhibition, 48 h
The source made the active and inactive calls. Rule as the data show it: active = GI50 up to about 1.1 µM and inactive = higher. Positions of bridges follow the written chain, without caps; N, C: chain ends. Non-standard residues stand in square brackets, D forms with d. Residues, ends and D or L forms follow the SMILES beside them. *: point of attachment. PhAc = O=C(Cc1ccccc1)*
Below is a list of entries, each paired with its recorded GI50 value.

See these solved cases before continuing.
Compound: O=C(CCCCCCCCCCc1ccccc1)C1=C(O)CCCC1=O
Assayed System: IGROV-1
GI50: 35.4 µM (inactive)
--
Compound: O=C(Cc1ccccc1)N[C@@H]1COC(=O)[C@@H]2CCCN2C(=O)[C@@H]2CCCN2C1=O (PhAc-[dS]-Pro-Pro; ester 1-C)
Assayed System: IGROV-1
GI50: > 100 µM (inactive)
--
Compound: Oc1ccc(-c2nc(-c3ccc4ccccc4n3)c(-c3ccc(F)cc3)[nH]2)cc1
Assayed System: IGROV-1
GI50: 13 µM (inactive)

Query: Can you share its GI50? I mean this compound: CCc1cc(=O)n(/C(C)=C/c2ccccc2)n1C
Response: > 100 µM (inactive)

Query: Please give the measured GI50 for this compound: O=C1OC(c2ccccc2)=N/C1=C/NC(Cc1c[nH]cn1)C(=O)O (stereo unspecified)
Response: > 100 µM (inactive)

Query: Any idea what GI50 was measured for CC(C)(C)OC(=O)C#CC[C@H]1CCCC1/C=C/C(O)=C1/C(=O)NC(CCCNC(=O)OC(C)(C)C)C1=O (stereo partly specified) ?
Response: 39.5 µM (inactive)

Query: State the recorded GI50 for this entry: Nc1nc(Br)nc2ncn(C3CC(O)C(CO)O3)c12 (stereo unspecified)
Response: > 100 µM (inactive)

Query: What does the data say about its GI50? Entry: O=C1C2=C(c3ccccc31)C(c1ccccc1Cl)N1C(=O)CCSC1=N2 (stereo unspecified)
Response: > 100 µM (inactive)

Query: What value of GI50 has been recorded for this entry: CCN(CC)C(=O)Cn1c(-c2ccccc2)cc2ccccc21
Response: 60.8 µM (inactive)

Query: Which GI50 reading was recorded for the compound CCOC(=O)c1cc2c3c(c(O)c(OC)c2s1)N(C(=O)c1cc2c4c(c(O)c(OC)c2s1)N(C(C)=O)CC4)CC3 ?
Response: > 100 µM (inactive)

Query: Quick check: GI50 of O=c1nc(-c2ccccc2)c2c3c(cccn13)CCC2 ?
Response: > 100 µM (inactive)

Query: Look at this compound and give its reported GI50. O/N=N/c1ccccn1.OCC1OC2OC3C(CO)OC(OC4C(CO)OC(OC5C(CO)OC(OC6C(CO)OC(OC7C(CO)OC(OC1C(O)C2O)C(O)C7O)C(O)C6O)C(O)C5O)C(O)C4O)C(O)C3O (stereo unspecified)
Response: > 100 µM (inactive)

Query: Requested field: GI50. Item: N#Cc1ncc(C(Cl)Cl)nc1Cl
Response: 2.09 µM (inactive)

----------
# Test system: SF-539
# Procedure Details: NCI tumour cell line growth inhibition, 48 h
The source made the active and inactive calls. Cut-off read from the data, not from the text of the source: active = GI50 up to about 1.1 µM and inactive = higher.
A correct response names exactly one class from label 1 = active, label 0 = inactive

Here's what some known entries look like.
Compound: O=C1N/N=C\c2ccc(cc2)OCc2cccc(n2)COc2ccc(cc2)/C=N\NC1=O
Assigned Class: label 0
//
Compound: CC(C)=NNc1ncnc2[nH]cnc12
Assigned Class: label 0
//
Compound: CCn1c(=O)c2nc(SC)sc2n(-c2ccccc2)c1=S
Assigned Class: label 0
//
Compound: NNc1nc2ccccc2s1
Assigned Class: label 0
//
Compound: CC1=CC(=O)/C(=C/n2c(=S)[nH]c3ccc([N+](=O)[O-])cc32)C(=O)O1
Assigned Class: label 0

Query: Lab log entry: CC1CC(Br)C(=O)O1 (stereo unspecified) — outcome as called in the assay?
Response: label 0

Query: Status in this test for CCCCCCCC/C=C\CCCCCCCCCCCC(=O)O ?
Response: label 0

Query: For COC(=O)[C@H](CCSC)NC(=O)N[C@H](C)c1ccccc1 , which call appears in the assay record?
Response: label 0

Query: Check the results log: what was the call for COc1cc2cc(C(=O)N3CC(CCl)c4ccc(NCCN)cc43)[nH]c2c(OC)c1OC (stereo unspecified) ?
Response: label 1

Query: Returns: the outcome recorded for CC1C2(C)OC(=N)C(C#N)(C(c3cccc([N+](=O)[O-])c3)O2)C1(C#N)C#N (stereo unspecified) in this assay.
Response: label 0

Query: Please indicate how the test categorized O=C(O)CCc1nc(-c2ccccc2-n2cccc2)no1 .
Response: label 0

----------
# Test system: UACC-62
# Procedure Details: NCI tumour cell line growth inhibition, 48 h
The source made the active and inactive calls. Rule as the data show it: active = GI50 up to about 1.1 µM and inactive = higher.
Choose the fitting class; nothing outside yes (active), no (inactive) is accepted.

Examples from the recorded data:
Compound: CC(=O)c1ccc(Nc2c3ccccc3nc3occc23)cc1
Assigned Class: yes

Compound: CN(C)C(=S)C(Cl)(c1ccccc1)c1ccccc1
Assigned Class: no

Compound: N#Cc1c(N)nc(SCc2ccccc2)c(C#N)c1-c1ccc(O)cc1
Assigned Class: no

Compound: CCC1CCN=C(Cn2cc(C)c(=O)[nH]c2=O)N1 (stereo not given)
Assigned Class: no

Compound: Oc1ncnc2c1nnn2CCCn1nnc2c(O)ncnc21
Assigned Class: no

Now turn to the next compound.
Query: Recorded test outcome, item CCc1cc(=O)n(/C(C)=C/c2ccccc2)n1C
Response: no
